- System: A498 renal
- ASSAY SUMMARY: NCI tumour cell line growth inhibition, 48 h
Below: a set of entries, each annotated with reported TGI.
READOUT TYPE: TGI

[[record]]
molecule = "CC(C)C(N=c1c2ccccc2n(O)c2ccccc12)C(=O)O (stereo not given)"
reported_value = "> 100 µM"

[[record]]
molecule = "COC(=O)CN1Cc2cc(C)cc(c2O)CN(CC(=O)OC)Cc2cc(C)cc(c2O)CN(CC(=O)OC)Cc2cc(C)cc(c2O)C1"
reported_value = "> 84.3 µM"

[[record]]
molecule = "N#Cc1c(-c2ccc(Cl)cc2)cc(-c2ccc(Nc3ccnc4cc(Cl)ccc34)cc2)nc1N"
reported_value = "> 100 µM"

[[record]]
molecule = "Clc1nc(Cl)c2ncn(C/C=C\\COc3cccc(OC/C=C\\Cn4cnc5c(Cl)nc(Cl)nc54)c3)c2n1"
reported_value = "> 100 µM"

[[record]]
molecule = "C=CCN1C(N)=C(C#N)C(C#N)(C#N)C1CCC (stereo not given)"
reported_value = "> 100 µM"

[[record]]
molecule = "CCCCCCN1C(=O)CC(=O)N(CCCCCC)S1(=O)=O"
reported_value = "27.8 µM"

[[record]]
molecule = "CC(C)(C)OC(=O)NC(Cc1ccc(OCc2ccccc2)cn1)C(=O)N1CCCC1 (stereo not given)"
reported_value = "> 100 µM"

[[record]]
molecule = "O=C1C=C(c2[nH]c3ccccc3c2C2=CC(=O)c3ccccc3C2=O)C(=O)c2ccccc21"
reported_value = "> 100 µM"

[[record]]
molecule = "COc1cccc(/C(COc2ccc3c(c2)oc(=O)c2ccccc23)=N\\O)c1"
reported_value = "81.8 µM"

[[record]]
molecule = "COc1ccn(CC(=O)c2cc3ccccc3[nH]2)c(=O)n1"
reported_value = "> 100 µM"


====

- System: EKVX NSCLC
- ASSAY SUMMARY: NCI tumour cell line growth inhibition, 48 h
READOUT TYPE: GI50

[[record]]
compound = "Cc1ncc(C(=O)Nc2ccc(CN3CCN(C)CC3)c(C(F)(F)F)c2)cc1C#Cc1c(N)ncc2ccc(F)cc12"
reported_value = "1.54 µM"

[[record]]
compound = "CN1CCN(c2ccc3[nH]c(C4=C(O)c5nc(CCl)n(C)c5C(=O)C4=O)nc3n2)CC1"
reported_value = "15.9 µM"

[[record]]
compound = "O=c1[nH]cnc2c1ccn2C1OC(CO)C(O)C1O (configuration not stated)"
reported_value = "17.8 µM"

[[record]]
compound = "CCn1c(-c2nonc2N)nc2c(C#CC(C)(C)O)nc(CN3CCCC3)cc21"
reported_value = "> 25 µM"

[[record]]
compound = "Cn1cc(-c2nonc2-c2cn(C)c3ccc(F)cc23)c2ccccc21"
reported_value = "0.721 µM"

[[record]]
compound = "Oc1c(I)cc(I)cc1CNCCN(Cc1ccccn1)Cc1ccccn1"
reported_value = "0.911 µM"

[[record]]
compound = "COc1cc2c(/C=C3\\C(=O)N(C)c4ccc(O)cc43)c[nH]c2cc1C"
reported_value = "4.58 µM"


====

Below: a set of entries, each annotated with reported TGI.
- Test system: XF 498 CNS
- ASSAY SUMMARY: NCI tumour cell line growth inhibition, 48 h
READOUT TYPE: TGI

[[record]]
molecule = "O=C(O)COc1ccc(C(=O)/C(SS/C(C(=O)c2ccc(OCC(=O)O)c(Cl)c2Cl)=C2\\C=C(c3ccc(F)cc3)SS2)=C2/C=C(c3ccc(F)cc3)SS2)c(Cl)c1Cl"
reported_value = "27 µM"

[[record]]
molecule = "O=C1Nc2ccccc2C12CCCC2"
reported_value = "> 100 µM"

[[record]]
molecule = "O=C1C=CC=C[C@@H]2C(C3OCCO3)CC[C@H]12.[C-]#[O+].[C-]#[O+].[C-]#[O+].[Fe] (some centres undefined)"
reported_value = "> 100 µM"

[[record]]
molecule = "COC1=CC(=O)[C@]2(C)[C@H](C1=O)C(C)[C@H]2c1ccc(OC)cc1 (some centres undefined)"
reported_value = "> 100 µM"


====

- Tested on: OVCAR-3 ovarian
- ASSAY SUMMARY: NCI tumour cell line growth inhibition, 48 h
READOUT TYPE: TGI

[[record]]
compound = "COc1cccc2c1C(=O)c1c(O)c3c(c(O)c1C2=O)C[C@@](O)(C(C)=O)C[C@@H]3O[C@H]1C[C@H](N)[C@H](O)[C@H](C)O1"
reported_value = "0.777 µM"

[[record]]
compound = "Cc1cc2nc(N3C(=O)/C(=C/c4ccc(Oc5ccccc5)cc4)N=C3c3ccccc3)sc2cc1C"
reported_value = "> 100 µM"

[[record]]
compound = "O=C1OC(c2ccccc2)=N/C1=C\\c1ccc(Cl)cc1"
reported_value = "> 100 µM"

[[record]]
compound = "O=C(CSc1nnc(-c2ccccn2)s1)N/N=C/c1ccc([N+](=O)[O-])cc1"
reported_value = "> 100 µM"

[[record]]
compound = "COc1ccc(C(CC(C)=O)c2c(O)c3ccccc3oc2=O)cc1OC (stereo not drawn)"
reported_value = "> 100 µM"

[[record]]
compound = "S=c1nc2sc3c(c2c(Nc2ccccc2)[nH]1)CCCC3"
reported_value = "> 100 µM"

[[record]]
compound = "COc1cccc(/C(COc2ccc3c(c2)oc(=O)c2ccccc23)=N\\O)c1"
reported_value = "> 100 µM"

[[record]]
compound = "O=C(/C=C/c1cccs1)c1ccc(Cl)cc1Cl"
reported_value = "36.4 µM"

[[record]]
compound = "CS(=O)(=O)CCN(CC#N)Cc1ccc(-c2ccc3ncnc(Nc4ccc(OCc5cccc(F)c5)c(Cl)c4)c3c2)o1"
reported_value = "> 25 µM"

[[record]]
compound = "CCN(CC)CCOCCn1c2c(c3ccccc31)CCCC2"
reported_value = "> 100 µM"

[[record]]
compound = "CSC(SC)=C(C#N)C(=O)Nc1ccc(C)cc1"
reported_value = "> 100 µM"

[[record]]
compound = "CCNCC(O)COc1ccc2c(c1)[n+]([O-])nc(N)[n+]2[O-] (stereo not drawn)"
reported_value = "> 100 µM"

[[record]]
compound = "CC(=O)c1c2c(cc3c1CC1(Cc4cc5c(cc4C1)CCCC5)C3)CCCC2"
reported_value = "> 100 µM"


====

- System: HL-60(TB) leukemia
- ASSAY SUMMARY: NCI tumour cell line growth inhibition, 48 h
Below: a set of entries, each annotated with reported TGI.
READOUT TYPE: TGI (µM)

[[record]]
compound = "COc1cccc(CC2C(=O)N=C(NC(C)=O)N2C)c1OC(C)=O (stereo not given)"
study_target = "HL-60(TB) leukemia"
readout_type = "TGI"
output_unit = "µM"
qualifier = ">"
reported_value = 100

[[record]]
compound = "[C-]#[O+].[C-]#[O+].[C-]#[O+].[C-]#[O+].[O-]C(c1ccccc1[PH+]1OC(C(F)(F)F)(C(F)(F)F)c2ccccc21)(C(F)(F)F)C(F)(F)F.[Re] (stereo not given)"
study_target = "HL-60(TB) leukemia"
readout_type = "TGI"
output_unit = "µM"
qualifier = "="
reported_value = 11.4

[[record]]
compound = "CCCN1CCN(c2ccc3nc(-c4ccc5nc(-c6ccc(C(F)(F)F)cc6)[nH]c5c4)[nH]c3c2)CC1"
study_target = "HL-60(TB) leukemia"
readout_type = "TGI"
output_unit = "µM"
qualifier = "="
reported_value = 3.76

[[record]]
compound = "Cc1ccc(NC(=O)/C=C/c2ccccc2)c(C)c1"
study_target = "HL-60(TB) leukemia"
readout_type = "TGI"
output_unit = "µM"
qualifier = ">"
reported_value = 100

[[record]]
compound = "Nc1nc(Cl)nc(NCc2ccccc2)n1"
study_target = "HL-60(TB) leukemia"
readout_type = "TGI"
output_unit = "µM"
qualifier = ">"
reported_value = 100


====

- System: MOLT-4 leukemia
- ASSAY SUMMARY: NCI tumour cell line growth inhibition, 48 h
Below: a set of entries, each annotated with reported TGI.
READOUT TYPE: TGI

[[record]]
compound = "COc1ccc(C2SCc3nc4ccccc4n32)cc1 (centres undefined)"
reported_value = "45.5 µM"

[[record]]
compound = "NC(Cc1ccc(O)c(O)c1)P(=O)(O)O (centres undefined)"
reported_value = "> 100 µM"

[[record]]
compound = "CC(=O)OC1CC(OC2C(O)CC(OC3C(O)CC(OC4CCC5(C)C(CCC6C5CCC5(C)C(C7=CC(=O)OC7)C(O)CC65O)C4)OC3C)OC2C)OC(C)C1OC1OC(CO)C(O)C(O)C1O (centres undefined)"
reported_value = "> 100 µM"

[[record]]
compound = "O=[N+]([O-])c1ccccc1N=Nc1c(O)[nH]c2ccc(S(=O)(=O)O)cc12"
reported_value = "> 100 µM"

[[record]]
compound = "C=C1c2nc3ccccc3n2C=C(c2ccc(OC)cc2)N1c1ccccc1"
reported_value = "> 55.9 µM"

[[record]]
compound = "Cc1ccc(NC(=O)/C=C/c2ccccc2)c(C)c1"
reported_value = "> 100 µM"

[[record]]
compound = "COc1cc2c(cc1OC)C(C#N)(Cc1ccccc1)N(C(=O)c1ccccc1)C=C2 (centres undefined)"
reported_value = "> 100 µM"

[[record]]
compound = "Cc1cc2nc(N3C(=O)/C(=C/c4ccc(Oc5ccccc5)cc4)N=C3c3ccccc3)sc2cc1C"
reported_value = "> 100 µM"

[[record]]
compound = "CS(=O)(=O)CCN(CC#N)Cc1ccc(-c2ccc3ncnc(Nc4ccc(OCc5cccc(F)c5)c(Cl)c4)c3c2)o1"
reported_value = "> 25 µM"

[[record]]
compound = "COc1ccc(C(=O)O)c(Br)c1OCc1ccccc1"
reported_value = "> 100 µM"

[[record]]
compound = "CCCCCCCCCC(CCCC(O)CC(=O)O)OC1OC(COC2OC(C)C(O)C(O)C2O)C(O)C(O)C1OC1OC(CO)C(O)C(O)C1OC1OC(C)C(OC(=O)CC(C)C)C(O)C1O (centres undefined)"
reported_value = "> 60 µM"

[[record]]
compound = "CCOP(=O)(OCC)C1CC(C)OC1=O (centres undefined)"
reported_value = "> 100 µM"

[[record]]
compound = "O=C(CC(=O)N1N=C(N2c3ccccc3Sc3ccccc32)CC1c1ccccc1)Nc1ccccc1Cl (centres undefined)"
reported_value = "> 100 µM"

[[record]]
compound = "CC(C)(C)c1ccc(S(=O)(=O)N2C(c3cccc(C4CC[C@@H](C(=O)O)N4S(=O)(=O)c4ccc(C(C)(C)C)cc4)c3)CC[C@H]2C(=O)O)cc1 (some centres undefined)"
reported_value = "> 100 µM"

[[record]]
compound = "Cc1ncc(C(=O)Nc2ccc(CN3CCN(C)CC3)c(C(F)(F)F)c2)cc1C#Cc1c(N)ncc2ccc(F)cc12"
reported_value = "1.74 µM"

[[record]]
compound = "COc1ccc(C2=C(Cl)C(=O)N(c3ccc(OC)cc3OC)C(=O)C2(Cl)Cl)cc1"
reported_value = "74 µM"

[[record]]
compound = "C1OC1C1CO1 (centres undefined)"
reported_value = "> 100 µM"

[[record]]
compound = "CCN(CC)CCOCCn1c2c(c3ccccc31)CCCC2"
reported_value = "35.5 µM"

[[record]]
compound = "Cc1nc(-c2nc(C)c(C(=O)/C=C/c3ccc([N+](=O)[O-])cc3)s2)sc1C(=O)/C=C/c1ccc([N+](=O)[O-])cc1"
reported_value = "> 100 µM"


From: PubChem BioAssay (NCI)
